# experimental.details: Standard protocol for determination of kcat and KM (continuous spectrophotometric assay, Acetyl CoA hydrolysis at 235 nm)
# Assay type: biochemical
# assay.setup: purified protein; about 23° C.; pH 6.8; 0.2 mM acetyl CoA; glyphosate 0.125 to 10 mM
Quick reference: Km of the listed items.
Write the answer as a number in µM, unit excluded.

Examples with their reported Km follow.
>>> numeric_readout("SEQ ID NO: 489: GAT polypeptide (protein, 3_6A10, GAT polypeptide) MIEVKPINAEDTYELRHRILRPNQPIEACMYESDLLRGAFHLGGYYRGKLISIASFHQAEHSELQGQKQYQLRGMATLEGYREQKAGSSLIKHAEEILRKRGADLLWCNARTSASGYYKKLGFSEQGEIFETPPVGPHILMYKRIT")
660
>>> numeric_readout("SEQ ID NO: 394: GAT polypeptide (protein, 6_20H5, GAT polypeptide) MIEVKPINAEDTYEIRHRILRPNQPLEACKYETDLLGGTFHLGGYYRGKLISIASFHQAEHSELEGQKQYQLRGMATLEGYREQKAGSTLIRHAEELLRKKGADLLWCNARTSASGYYKKLGFSEQGEVYDIPPIGPHILMYKKLT")
800

# context switch: different molecule, same Km
// sample SEQ ID NO: 372: GAT polypeptide (protein, 4B_19C8, GAT polypeptide) MIEVKPINAEDTYEIRHRILRPNQPLEACKYETDLLGGTFHLGGYYRGKLISIASFHQAEHPELEGQKQYQLRGMATLEGYREQKAGSTLIRHAEELLRKKGADLLWCNARTSASGYYKKLGFSEQGGVYDIPPIGPHILMYKKLA , its Km was 1200
